# Test system: Staphylococcus aureus, strain ATCC 25923
# condition.notes: ATCC 25923
Some compounds, each annotated with its measured S. aureus (MIC).

Take a look at these entries with their results.
compound	S. aureus (MIC)
CC(C)(C)c1cc(C(C)(C)C)c2[nH]c(C(C)(C)C)c(C[C@H](NC(=O)[C@@H](N)CCCNC(=N)N)C(=O)N[C@@H](CCCNC(=N)N)C(=O)NC3CCCC3)c2c1 [Compound 14]	<2 mg/L
CC(C)CNC(=O)[C@H](CCCNC(=N)N)NC(=O)[C@H](Cc1c(C(C)(C)C)[nH]c2c(C(C)(C)C)cc(C(C)(C)C)cc12)NC(=O)[C@@H](N)CCCNC(=N)N [Compound 12]	<2 mg/L

[in] Quickly give me recorded S. aureus (MIC) for CC(C)(C)c1cc(C(C)(C)C)c2[nH]c(C(C)(C)C)c(C[C@H](NC(=O)[C@@H](N)CCCNC(=N)N)C(=O)N[C@@H](CCCNC(=N)N)C(=O)NC3CCCCC3)c2c1 [Compound 13]
[out] <2 mg/L
